Biological target: T1, human DLL4 extracellular domain (human, UniProt Q9NR61 27-529)
T1 construct: purified recombinant ECD; biotin-labelled or 6xHis-tagged depending on the assay; also called huDLL4 ECD; hu DLL4 ECD
T1 sequence (Q9NR61 27-529 limits assumed): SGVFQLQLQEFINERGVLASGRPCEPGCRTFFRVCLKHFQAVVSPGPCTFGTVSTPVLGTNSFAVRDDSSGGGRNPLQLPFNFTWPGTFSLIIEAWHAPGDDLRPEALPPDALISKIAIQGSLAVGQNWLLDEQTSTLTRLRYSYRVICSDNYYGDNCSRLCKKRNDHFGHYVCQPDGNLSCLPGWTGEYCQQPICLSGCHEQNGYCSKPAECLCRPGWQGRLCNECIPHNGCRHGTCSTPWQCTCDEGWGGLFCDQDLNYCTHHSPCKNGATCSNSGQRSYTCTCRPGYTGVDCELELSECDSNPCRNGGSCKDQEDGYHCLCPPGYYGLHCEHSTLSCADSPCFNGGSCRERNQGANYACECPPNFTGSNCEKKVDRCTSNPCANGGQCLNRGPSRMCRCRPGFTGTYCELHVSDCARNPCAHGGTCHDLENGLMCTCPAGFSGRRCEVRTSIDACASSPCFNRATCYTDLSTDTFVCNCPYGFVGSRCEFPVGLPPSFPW
Assay: binding ELISA
assay endpoint: pEC50
Answers are plain numbers, as −log10 of the molar value.

[
  {
    "binder": "h1A11.6 (antibody, V domains shown, humanized IgG; also called VH.1a/VL.1a 1A11) VH: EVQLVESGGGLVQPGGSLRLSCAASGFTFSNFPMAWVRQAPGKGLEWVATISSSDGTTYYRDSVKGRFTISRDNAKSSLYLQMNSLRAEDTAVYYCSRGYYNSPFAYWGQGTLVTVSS VL: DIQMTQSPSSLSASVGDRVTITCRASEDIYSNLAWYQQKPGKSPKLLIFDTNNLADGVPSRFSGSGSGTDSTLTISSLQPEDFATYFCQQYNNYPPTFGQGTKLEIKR",
    "pEC50": 10.10
  },
  {
    "binder": "h1A11.3 (antibody, V domains shown, humanized IgG; also called VH.1/VL.1b 1A11) VH: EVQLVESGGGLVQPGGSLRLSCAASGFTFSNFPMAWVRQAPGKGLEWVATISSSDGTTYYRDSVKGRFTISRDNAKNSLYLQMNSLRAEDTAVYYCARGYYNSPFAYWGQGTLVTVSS VL: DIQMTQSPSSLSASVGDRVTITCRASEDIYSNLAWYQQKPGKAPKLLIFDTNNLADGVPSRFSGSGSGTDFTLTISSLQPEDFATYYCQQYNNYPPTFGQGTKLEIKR",
    "pEC50": 10.15
  },
  {
    "binder": "h1A11.10 (antibody, V domains shown, humanized IgG; also called VH.1b/VL.1a 1A11) VH: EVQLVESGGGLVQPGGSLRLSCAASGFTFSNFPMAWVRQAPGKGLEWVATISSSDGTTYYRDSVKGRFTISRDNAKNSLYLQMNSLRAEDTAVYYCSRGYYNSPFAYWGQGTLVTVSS VL: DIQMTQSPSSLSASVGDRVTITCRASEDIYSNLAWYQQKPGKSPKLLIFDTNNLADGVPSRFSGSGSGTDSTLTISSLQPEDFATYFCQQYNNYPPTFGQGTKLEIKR",
    "pEC50": 10.22
  },
  {
    "binder": "h1A11.15 (antibody, V domains shown, humanized IgG; also called VH.2a/VL.1b 1A11) VH: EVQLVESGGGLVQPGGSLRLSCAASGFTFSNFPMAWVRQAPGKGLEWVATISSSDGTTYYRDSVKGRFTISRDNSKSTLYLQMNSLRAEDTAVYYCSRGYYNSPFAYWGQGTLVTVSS VL: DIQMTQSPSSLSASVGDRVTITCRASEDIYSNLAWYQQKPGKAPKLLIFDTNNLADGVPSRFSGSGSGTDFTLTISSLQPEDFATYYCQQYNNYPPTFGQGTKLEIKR",
    "pEC50": 10.15
  }
]

With those in mind, consider the next binder.
Looking for the measured pEC50 of 1A11 chimeric antibody (antibody, human IgG1, V domains shown, also called Chimera of 1A11; 1A11 (chimera)) VH: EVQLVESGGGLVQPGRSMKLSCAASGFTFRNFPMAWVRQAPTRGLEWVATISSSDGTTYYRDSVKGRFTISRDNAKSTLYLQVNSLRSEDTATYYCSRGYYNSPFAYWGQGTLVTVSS VL: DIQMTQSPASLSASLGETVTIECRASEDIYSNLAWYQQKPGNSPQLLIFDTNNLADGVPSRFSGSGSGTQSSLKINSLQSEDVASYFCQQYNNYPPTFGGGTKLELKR , can you help?
9.70
